Target: HIF-PH2 (EGLN1) (Homo sapiens, UniProt Q9GZT9)
Construct: made in house; host or cells: insect Hi5 cells
Sequence (Q9GZT9 whole entry, species assumed): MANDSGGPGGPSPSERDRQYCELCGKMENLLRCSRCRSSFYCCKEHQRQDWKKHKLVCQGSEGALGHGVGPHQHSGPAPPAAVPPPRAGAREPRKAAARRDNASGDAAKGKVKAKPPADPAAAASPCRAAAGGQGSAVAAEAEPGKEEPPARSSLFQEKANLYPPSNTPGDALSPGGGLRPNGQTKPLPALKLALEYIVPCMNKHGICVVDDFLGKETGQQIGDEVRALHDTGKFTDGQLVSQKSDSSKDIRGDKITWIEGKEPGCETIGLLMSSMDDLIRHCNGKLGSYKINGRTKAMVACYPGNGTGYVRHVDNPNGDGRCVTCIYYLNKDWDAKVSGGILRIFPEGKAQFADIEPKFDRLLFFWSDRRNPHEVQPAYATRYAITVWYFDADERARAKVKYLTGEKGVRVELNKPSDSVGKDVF
Assay: HIF-PH assay (14CO2 capture, peptide-dependent turnover)
Format: biochemical
Settings: Concentration 200.00 μM
MEASURED_ATTRIBUTE: inhibition at 200 µM (%)

Ask | What reported inhibition at 200 µM corresponds to O=C(O)CNC(=O)c1nc(C#Cc2ccccc2)c2nc(-c3ccccc3)oc2c1O [Example 6] on HIF-PH2 (EGLN1) (Homo sapiens, UniProt Q9GZT9)?
Reply | 99

Ask | What reported inhibition at 200 µM corresponds to C[C@H](NC(=O)c1ncc2onc(-c3ccccc3)c2c1O)C(=O)O [Example 30] on HIF-PH2 (EGLN1) (Homo sapiens, UniProt Q9GZT9)?
Reply | 100

Ask | What reported inhibition at 200 µM corresponds to Cc1nc(C(=O)NCC(=O)O)c(O)c2c(-c3ccccc3)noc12 [Example 12] on HIF-PH2 (EGLN1) (Homo sapiens, UniProt Q9GZT9)?
Reply | 98.6

Ask | What reported inhibition at 200 µM corresponds to C[C@H](NC(=O)c1ncc2c(-c3ccccc3)noc2c1O)C(=O)O [Example 43] on HIF-PH2 (EGLN1) (Homo sapiens, UniProt Q9GZT9)?
Reply | 98.7

Ask | What reported inhibition at 200 µM corresponds to O=C(O)CNC(=O)c1nc(-c2ccc(F)cc2)c2nc(-c3ccccc3)oc2c1O [Example 8] on HIF-PH2 (EGLN1) (Homo sapiens, UniProt Q9GZT9)?
Reply | 97.3

Ask | What reported inhibition at 200 µM corresponds to N#Cc1nc(C(=O)NCC(=O)O)c(O)c2onc(-c3ccc(Br)o3)c12 [Example 54] on HIF-PH2 (EGLN1) (Homo sapiens, UniProt Q9GZT9)?
Reply | 99.9

P. O=C(O)CNC(=O)c1ncc2c(-c3ccc(Br)o3)noc2c1O [Example 49]
Q. C[C@@H](NC(=O)c1ncc2onc(-c3ccccc3)c2c1O)C(=O)O [Example 31]
Ask | // which entry reports the smaller inhibition at 200 µM, P or Q ? Pick one; state its label.
Reply | Q
